STUDY_SYSTEM: Calpain-2 catalytic subunit (Sus scrofa)
Sequence (P43367 whole entry): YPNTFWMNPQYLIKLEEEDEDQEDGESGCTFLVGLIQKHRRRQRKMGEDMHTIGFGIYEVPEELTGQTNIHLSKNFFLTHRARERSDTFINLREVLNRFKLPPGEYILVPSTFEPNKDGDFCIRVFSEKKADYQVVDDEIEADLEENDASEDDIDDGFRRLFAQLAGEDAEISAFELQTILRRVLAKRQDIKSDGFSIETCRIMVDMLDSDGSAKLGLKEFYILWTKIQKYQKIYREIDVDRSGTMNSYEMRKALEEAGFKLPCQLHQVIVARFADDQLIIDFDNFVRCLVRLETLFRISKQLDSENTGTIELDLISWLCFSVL
ASSAY_EXPLANATION: pig calpain II inhibitor potency, dose response, biochemical, fluorogenic peptide substrate (AID 1420)
Type: functional
Measured IC50 by item

Past entries and their recorded results:
CC1Cc2ccccc2N1C(=S)NC(=O)c1ccco1 (configuration not stated)
0.535 µM (not active)
COc1ccccc1C(=O)Nc1ccc(C(=O)c2ccccc2)cc1
35.2 µM (not active)
Cc1ccc(N2C(=O)CC(c3c[nH]c4ccccc34)C2=O)cc1 (configuration not stated)
12.1 µM (not active)
Cc1ccc(SC[C@H](c2ccccc2)N2CCN(CCc3ccccc3)CCC2=O)cc1
7.19 µM (not active)
S=c1[nH]nc(CSCc2ccccc2Cl)n1C1CCCCC1
11.1 µM (not active)

Q. State the measured IC50 (Calpain-2 catalytic subunit (Sus scrofa)) of Cn1nc(C(=O)NNc2c(F)c(F)cc(F)c2F)c2ccccc2c1=O
A. 5.53 µM (not active)

Q. State the measured IC50 (Calpain-2 catalytic subunit (Sus scrofa)) of CCCCNS(=O)(=O)c1ccc2[nH]c(SCC(=O)Nc3ccccc3Cl)nc2c1
A. 18.5 µM (not active)
